Please go through the items and note down their kon.
# assayed system: SARS-CoV-2 M^pro (Severe acute respiratory syndrome coronavirus 2, UniProt P0DTD1)
# test method notes: biochemical
# Assay type: binding
# reported conditions: read-out: ka (kinetic association)
Numbered stars: 1 amine (or outer) side, 2 acyl side, 3 side chain; on linkers, the order of the positions; unused ones are H or OH. Bridge positions count the residues as written; N and C are the ends. Square brackets hold non-standard residues; d marks the D form. Peptide text beside a SMILES is read from it. Acbc(cis-1,3) = O=C([C@H]1C[C@@H](N[*:1])C1)[*:2]
One number for each entry, in M⁻¹ s⁻¹.

Consider the worked cases shown below.
molecule | assayed system | kon (M⁻¹ s⁻¹)
CC(C)C[C@@H]1NC(=O)[C@H](CC(N)=O)NC(=O)[C@H](CC(C)C)NC(=O)[C@H]2C[C@H](C2)NC(=O)[C@H](CCC(N)=O)NC(=O)[C@H](Cc2ccccc2)NC(=O)[C@@H](Cc2ccc(O)cc2)NC(=O)CSC[C@H](C(N)=O)NC(=O)CNC(=O)[C@@H]2CCCN2C(=O)[C@H](CCCNC(=N)N)NC(=O)[C@H](Cc2ccc(O)cc2)NC(=O)CNC1=O [GM4H3Q] ({CH2CO}-[dY]FQ[Acbc(cis-1,3)]LNLGYRPG[dC]-NH2; thioether N-13) | SARS-CoV-2 M^pro (Severe acute respiratory syndrome coronavirus 2, UniProt P0DTD1) | 1.2e+06
CC[C@H](C)[C@@H]1NC(=O)[C@H](Cc2ccc(O)cc2)NC(=O)[C@H](CC(C)C)NC(=O)[C@H](CC(=O)O)NC(=O)[C@H](CCCNC(=N)N)NC(=O)[C@H](Cc2ccccc2)NC(=O)[C@H](C)NC(=O)[C@H](Cc2c[nH]cn2)NC(=O)[C@H](Cc2ccccc2)NC(=O)[C@@H](Cc2ccc(O)cc2)NC(=O)CSC[C@H](C(N)=O)NC(=O)CNC(=O)[C@H](CC(C)C)NC1=O [GM5γ^24A] ({CH2CO}-[dY]FHAFRDLYILG[dC]-NH2; thioether N-13) | SARS-CoV-2 M^pro (Severe acute respiratory syndrome coronavirus 2, UniProt P0DTD1) | 140000

Query: Provide only the value of recorded kon for CC(C)C[C@@H]1NC(=O)[C@H](CC(N)=O)NC(=O)[C@H](CC(C)C)NC(=O)[C@H]2C[C@H](C2)NC(=O)[C@H](Cc2c[nH]cn2)NC(=O)[C@H](Cc2ccccc2)NC(=O)[C@@H](Cc2ccc(O)cc2)NC(=O)CSC[C@H](C(N)=O)NC(=O)CNC(=O)[C@@H]2CCCN2C(=O)[C@H](CCCNC(=N)N)NC(=O)[C@H](Cc2ccc(O)cc2)NC(=O)CNC1=O [GM4] ({CH2CO}-[dY]FH[Acbc(cis-1,3)]LNLGYRPG[dC]-NH2; thioether N-13)
Reply: 100000

----------
# test method notes: Serum stability assay in human serum (LC/MS)
# reported conditions: human, Remaining peptide (%), 37 °C, incubation time 4 h, relative to 0 h = 100%, technical replicates
Numbered stars: 1 amine (or outer) side, 2 acyl side, 3 side chain; on linkers, the order of the positions; unused ones are H or OH. Bridge positions count the residues as written; N and C are the ends. Square brackets hold non-standard residues; d marks the D form. Peptide text beside a SMILES is read from it. Acbc(cis-1,3) = O=C([C@H]1C[C@@H](N[*:1])C1)[*:2]; X1 = O=C([C@@H]1CC[C@H](N[*:1])C1)[*:2]
Field: remaining at 4 h, 10 μM. Provide a value for each of the compounds that follow.
Numbers only, in %.

// for each compound in input: emit remaining at 4 h, 10 μM
1. CC[C@H](C)[C@@H]1NC(=O)[C@H](Cc2ccc(O)cc2)NC(=O)[C@H](CC(C)C)NC(=O)[C@H](CC(=O)O)NC(=O)[C@H](CCCNC(=N)N)NC(=O)[C@H](Cc2ccccc2)NC(=O)[C@H](C)NC(=O)[C@H](Cc2c[nH]cn2)NC(=O)[C@H](Cc2ccccc2)NC(=O)[C@@H](Cc2ccc(O)cc2)NC(=O)CSC[C@H](C(N)=O)NC(=O)CNC(=O)[C@H](CC(C)C)NC1=O [GM5γ^24A] ({CH2CO}-[dY]FHAFRDLYILG[dC]-NH2; thioether N-13)
2. CC[C@H](C)[C@@H]1NC(=O)[C@H](Cc2ccc(O)cc2)NC(=O)[C@H](CC(C)C)NC(=O)[C@H](CC(=O)O)NC(=O)[C@H](CCCNC(=N)N)NC(=O)[C@H](Cc2ccccc2)NC(=O)[C@@H]2CC[C@@H](C2)NC(=O)[C@H](Cc2c[nH]cn2)NC(=O)[C@H](Cc2ccccc2)NC(=O)[C@@H](Cc2ccc(O)cc2)NC(=O)CSC[C@H](C(N)=O)NC(=O)CNC(=O)[C@H](CC(C)C)NC1=O [GM5] ({CH2CO}-[dY]FH[X1]FRDLYILG[dC]-NH2; thioether N-13)
3. CC(C)C[C@@H]1NC(=O)[C@H](CC(N)=O)NC(=O)[C@H](CC(C)C)NC(=O)[C@H]2C[C@H](C2)NC(=O)[C@H](CCC(N)=O)NC(=O)[C@H](Cc2ccccc2)NC(=O)[C@@H](Cc2ccc(O)cc2)NC(=O)CSC[C@H](C(N)=O)NC(=O)CNC(=O)[C@@H]2CCCN2C(=O)[C@H](CCCNC(=N)N)NC(=O)[C@H](Cc2ccc(O)cc2)NC(=O)CNC1=O [GM4H3Q] ({CH2CO}-[dY]FQ[Acbc(cis-1,3)]LNLGYRPG[dC]-NH2; thioether N-13)
4. CC(C)C[C@@H]1NC(=O)[C@H](C)NC(=O)[C@H](Cc2c[nH]cn2)NC(=O)[C@H](Cc2ccccc2)NC(=O)[C@@H](Cc2ccc(O)cc2)NC(=O)CSC[C@H](C(N)=O)NC(=O)CNC(=O)[C@@H]2CCCN2C(=O)[C@H](CCCNC(=N)N)NC(=O)[C@H](Cc2ccc(O)cc2)NC(=O)CNC(=O)[C@H](CC(C)C)NC(=O)[C@H](CC(N)=O)NC1=O [GM4γ^14A] ({CH2CO}-[dY]FHALNLGYRPG[dC]-NH2; thioether N-13)
5. CC[C@H](C)[C@@H]1NC(=O)[C@H](CO)NC(=O)[C@H](Cc2ccccc2)NC(=O)[C@H]2C[C@H](C2)NC(=O)[C@H](Cc2c[nH]cn2)NC(=O)[C@H](Cc2ccccc2)NC(=O)[C@@H](Cc2ccc(O)cc2)NC(=O)CSC[C@H](C(N)=O)NC(=O)[C@H](CC(C)C)NC(=O)[C@H](CCCNC(=N)N)NC(=O)[C@H](Cc2ccc(O)cc2)NC(=O)[C@H](CCCNC(=N)N)NC(=O)[C@H](Cc2ccccc2)NC1=O [GM2] ({CH2CO}-[dY]FH[Acbc(cis-1,3)]FSIFRYRL[dC]-NH2; thioether N-13)
6. CC(C)C[C@@H]1NC(=O)[C@H]([C@@H](C)O)NC(=O)[C@H](Cc2ccc(O)cc2)NC(=O)[C@H]([C@@H](C)O)NC(=O)[C@H](Cc2c[nH]cn2)NC(=O)[C@@H]2CCCN2C(=O)[C@@H]2CCCN2C(=O)[C@H](Cc2ccccc2)NC(=O)[C@H]2C[C@H](C2)NC(=O)[C@H](Cc2c[nH]cn2)NC(=O)[C@H](Cc2ccccc2)NC(=O)[C@@H](Cc2ccc(O)cc2)NC(=O)CSC[C@H](C(N)=O)NC1=O [GM1] ({CH2CO}-[dY]FH[Acbc(cis-1,3)]FPPHTYTL[dC]-NH2; thioether N-13)

Reply:
[82.3, 78.7, 99.9, 66.7, 17.5, 115]

Attribution: paper PMC10322702
